Please go through the items and note down their pIC50.
TARGET: human recombinant HPK1 (Homo sapiens, UniProt Q92918)
Sequence (Q92918 whole entry): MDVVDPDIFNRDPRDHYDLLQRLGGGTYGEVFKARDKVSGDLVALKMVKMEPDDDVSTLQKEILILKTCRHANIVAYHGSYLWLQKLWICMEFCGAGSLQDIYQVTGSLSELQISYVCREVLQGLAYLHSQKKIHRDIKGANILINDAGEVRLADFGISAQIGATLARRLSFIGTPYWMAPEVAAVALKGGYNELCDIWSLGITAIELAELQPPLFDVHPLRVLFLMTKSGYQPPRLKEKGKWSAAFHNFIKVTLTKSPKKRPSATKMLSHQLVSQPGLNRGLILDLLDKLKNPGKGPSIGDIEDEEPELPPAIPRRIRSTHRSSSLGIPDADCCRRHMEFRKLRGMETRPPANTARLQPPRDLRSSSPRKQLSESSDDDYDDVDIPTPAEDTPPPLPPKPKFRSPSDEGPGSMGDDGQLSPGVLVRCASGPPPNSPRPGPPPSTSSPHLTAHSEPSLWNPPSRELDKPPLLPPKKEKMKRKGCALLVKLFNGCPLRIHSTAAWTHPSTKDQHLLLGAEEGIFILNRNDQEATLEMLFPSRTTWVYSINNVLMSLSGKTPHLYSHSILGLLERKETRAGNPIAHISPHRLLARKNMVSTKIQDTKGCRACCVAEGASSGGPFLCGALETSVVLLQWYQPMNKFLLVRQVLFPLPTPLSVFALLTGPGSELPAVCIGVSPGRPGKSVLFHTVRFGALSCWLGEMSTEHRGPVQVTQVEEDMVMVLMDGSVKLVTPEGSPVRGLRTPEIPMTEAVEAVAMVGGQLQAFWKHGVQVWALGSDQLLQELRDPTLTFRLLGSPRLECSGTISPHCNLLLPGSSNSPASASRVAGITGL
PROCEDURE_DETAILS: Inhibitory activity against human recombinant HPK1 (TR-FRET)
DETAILS: ULight-p70S6K peptide, ATP at Km, room temperature, 1 hour, 0.32 to 1000 nM compound
pIC50: −log10 of the molar value. Where a name gives a salt, the structure may show the parent alone.

Query the reported pIC50 for human recombinant HPK1 (Homo sapiens, UniProt Q92918); item: COc1cccc(F)c1-c1nccc(Nc2cc(N3CCC[C@H](O)C3)c(-c3ccc(N4CCN(C)CC4)cc3)cn2)n1
≥ 8.00

Now the same for COc1cc(C(=O)N2CCC(F)(F)C2)cc(F)c1-c1nccc(Nc2cc(N3CCC[C@H](O)C3)c(-c3cnn(C(F)F)c3)cn2)n1
≥ 8.00

Now the same for COc1cc(F)cc(F)c1-c1nc(Nc2cc(N3CCC[C@H](N)C3)c(-c3cnn(C(F)F)c3)cn2)ccc1C#N [Example 310, hydrochloride]
≥ 8.00

Now the same for COc1cccc(F)c1-c1nccc(Nc2cc(N3CCC[C@H](N)C3)c(-c3cnn(CC4CNC4)c3)cn2)n1 [Example 237, hydrochloride]
≥ 8.00

Now the same for COc1cccc(F)c1-c1nccc(Nc2cc(N3CCC[C@H](N)C3)c(-c3cnc4c(c3)OCC(=O)N4)cn2)n1 [Example 275, hydrochloride]
≥ 8.00

Now the same for COc1cc(F)cc(F)c1-c1nc(Nc2cc(N3CCC[C@H](O)C3)c(-c3cnn(CC(F)F)c3)cn2)ccc1N
≥ 8.00

Now the same for COc1cccc(F)c1-c1nccc(Nc2cc(N3CC[C@@H](C)[C@H](N)C3)c(-c3cnn(C(F)F)c3)cn2)n1 [Example 204, hydrochloride]
≥ 8.00

Now the same for COc1cccc(F)c1-c1nccc(Nc2cc(N3CCC4(CCN(C)C4)CC3)c(-c3cnn(C4CCOCC4)c3)cn2)n1
≥ 8.00

Now the same for COc1cccc(F)c1-c1nccc(Nc2cc(N3CCC[C@H](N)C3)c(C#Cc3cnn(CC(F)(F)F)c3)cn2)n1 [Example 166, hydrochloride]
≥ 8.00

Now the same for COc1cccc(F)c1-c1nccc(Nc2cc(N3CCC[C@H](N)C3)c(-c3ccc(F)c(C(F)(F)F)c3)cn2)n1 [Example 293, hydrochloride]
≥ 8.00

Now the same for COc1cccc(F)c1-c1nccc(Nc2cc(N3CCC[C@H](N)C3)c(-c3cnn([C@H]4CCOC4)c3)cn2)n1 [Example 298, hydrochloride]
≥ 8.00

Now the same for COc1cccc(F)c1-c1nccc(Nc2cc(N3CCC[C@H](N)C3)c(-c3cnn(C4CCN(C)CC4)c3)cn2)n1 [Example 74, hydrochloride]
≥ 8.00

Now the same for COc1cccc(F)c1-c1nccc(Nc2cc(N3CC[C@H](OC)[C@H](N)C3)c(-c3cnn(C(F)F)c3)cn2)n1
≥ 8.00

Now the same for COc1cccc(F)c1-c1nccc(Nc2cc(N3CCC[C@H](N)C3)c(-c3cnn(C4CC(C)(C)OC(C)(C)C4)c3)cn2)n1 [Example 269, hydrochloride]
≥ 8.00

Now the same for COc1cccc(F)c1-c1nccc(Nc2cc(N3CCC4(CCNCC4)C3)c(-c3cnn(C4CCOCC4)c3)cn2)n1 [Example 93, hydrochloride]
7.30 to 8.00

Now the same for COc1cccc(F)c1-c1nccc(Nc2cc(N3CCC[C@H](O)C3)c(-c3ccc(C(F)(F)F)nc3)cn2)n1
7.00 to 7.30

Now the same for COc1cc(F)cc(F)c1-c1nccc(Nc2cc(N3CC[C@@H](F)[C@H](N)C3)c(-c3cnn(C(C)C)c3)cn2)n1 [Example 339, hydrochloride]
≥ 8.00

Now the same for COc1cccc(F)c1-c1nc(Nc2cc(N3CCC[C@H](O)C3)c(C(N)=O)cn2)ccc1N
≥ 8.00

Now the same for COc1cccc(F)c1-c1nc(Nc2cc(N3CCC[C@H](N)C3)c(-c3cnn(CC(F)F)c3)cn2)ccc1[N+](=O)[O-] [Example 152, hydrochloride]
≥ 8.00

Now the same for COc1cccc(F)c1-c1nccc(Nc2cc(N3CCC[C@H](N)C3)c(-c3ccc(F)c(Cl)c3)cn2)n1 [Example 292, hydrochloride]
≥ 8.00

Now the same for COc1cccc(F)c1-c1nc(Nc2cc(N3CCC[C@H](N)C3)c(-c3cnn(C4CCOCC4)c3)cn2)ccc1C#N [Example 300, hydrochloride]
≥ 8.00

Now the same for COc1cccc(F)c1-c1nc(Nc2cc(N3CCC[C@H](O)C3)c(-c3cnn(C4CCOCC4)c3)cn2)ccc1C
< 7.00

Now the same for COc1cccc(F)c1-c1nccc(Nc2cc(N3CCC[C@H](N)C3)c(-c3cnn(CCC(N)=O)c3)cn2)n1 [Example 167, hydrochloride]
≥ 8.00

Now the same for COc1cc(F)cc(F)c1-c1nccc(Nc2cc(N3CCC[C@H](O)C3)c(-c3cnn(CC(F)(F)F)c3)cn2)n1
≥ 8.00

Now the same for COc1cccc(F)c1-c1nccc(Nc2cc(N3C[C@@H](N)CC[C@H]3C)c(-c3cnn(C(F)F)c3)cn2)n1
≥ 8.00
